Tested on: ATP;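 note: ATP exposure 15 min at 22 °C before imaging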
Test: switch fluorescence ratio, 500 uM ATP over buffer (Cy3 cluster intensity, sum of 5 cycles each) (fold (ratio)); higher = stronger signal-on switching upon ATP binding; sequences stand for … in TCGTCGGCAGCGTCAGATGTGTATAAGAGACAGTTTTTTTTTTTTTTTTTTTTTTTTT…TC
Conditions: aptamer strand: ATP DNA aptamer (quencher-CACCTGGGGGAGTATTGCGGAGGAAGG + anchor), 100 nM annealed; ATP concentration: 500 uM
measured_quantity: switch fluorescence ratio
Just the number, please, no unit after it.

Would you please look over these solved cases?
>  <polymer_sequence>
CGTAGCGGGG

>  <quantitative_result>
1.11

$$$$
>  <polymer_sequence>
TGGCCGATGG

>  <quantitative_result>
0.986

$$$$
>  <polymer_sequence>
TCTCCCTTGT

>  <quantitative_result>
1.03

$$$$

# context switch: different sequence, same switch fluorescence ratio
Problem: Hi! What's the reported switch fluorescence ratio for "TTTTAGTTCT" on ATP?
Result: 1.25
